Numbers sourced from paper PMC11992225.

Tested on: non-growing UPEC CFT073
Experiment: Dilution-regrowth assay (screen, hit validation, dose-response) on stationary-phase UPEC
Type: cell-based, Escherichia coli
Details: E. coli, LPM pH 5.5; regrowth delay of non-growing bacteria, 24 h treatment, OD600 6 h after 2500-fold dilution; read-out: EC50
pEC50: −log10 of the molar value.
# pEC50 per entry
OBSERVATION TYPE: pEC50

STRUCTURE STRING	OBSERVATION TYPE	RESULT
CO[C@H]1/C=C/O[C@@]2(C)Oc3c(C)c(O)c4c(O)c(c(/C=N/N=C/N5CCCCC5)c(O)c4c3C2=O)NC(=O)/C(C)=C\C=C\[C@H](C)[C@H](O)[C@@H](C)[C@@H](O)[C@@H](C)[C@H](OC(C)=O)[C@@H]1C	pEC50	5.40
CC(=O)[O][Pt]([NH2])([Cl])([Cl])([NH]C1CCCCC1)[O]C(C)=O	pEC50	5.12
N#Cc1c(N2C[C@@H]3NCCO[C@H]3C2)c(F)cc2c(=O)c(C(=O)O)cn(C3CC3)c12	pEC50	4.87
N[C@@H]1CN(c2c(F)cc3c(=O)c(C(=O)O)cn([C@@H]4C[C@@H]4F)c3c2Cl)CC12CC2	pEC50	4.97
